Source listed as paper PMC9604255.

test system: HepG2 cancer cells; test: MTT antiproliferative assay, HepG2; format: cell-based, human; conditions: Homo sapiens, HepG2, 48 h, MTT assay after 48 h; read-out: IC50 HepG2
PROPERTY NAME: log10 of IC50 (log10 of the value in µM)

compound=O=C(/C=C/c1ccccc1)NNC(=O)/C=C/c1ccc([N+](=O)[O-])cc1 experimental_value=0.88
compound=O=C(/C=C/c1ccccc1)NNC(=O)/C=C/c1ccco1 experimental_value=1.54
compound=COc1cccc(/C=C/C(=O)NNC(=O)/C=C/c2ccc([N+](=O)[O-])cc2)c1 experimental_value=0.53
compound=COc1cccc(/C=C/C(=O)NNC(=O)/C=C/c2cccc(OC)c2)c1 experimental_value=1.16
compound=CC(C)c1ccc(/C=C/C(=O)NNC(=O)/C=C/c2ccccc2)cc1 experimental_value=1.27
compound=O=C(/C=C/c1ccccc1)NNC(=O)/C=C/c1ccc(F)cc1 experimental_value=0.88
compound=COc1cccc(/C=C/C(=O)NNC(=O)/C=C/c2ccccc2)c1 experimental_value=1.67
compound=Cc1ccc(/C=C/C(=O)NNC(=O)/C=C/c2ccccc2)cc1 experimental_value=1.37
compound=COc1cc(/C=C/C(=O)NNC(=O)/C=C/c2ccccc2)ccc1O experimental_value=1.49
compound=O=C(/C=C/c1ccccc1)NNC(=O)/C=C/c1cccc(O)c1 experimental_value=0.94
compound=O=C(/C=C/c1ccccc1)NNC(=O)/C=C/c1ccccc1[N+](=O)[O-] experimental_value=0.97
compound="O=C(/C=C/c1ccccc1)NNC(=O)/C=C/C1CC=CCC1 (centres unmarked)" experimental_value=1.31
compound=O=C(/C=C/c1ccccc1)NNC(=O)/C=C/C1CC1 experimental_value=1.89
compound=Cc1ncsc1/C=C/C(=O)NNC(=O)/C=C/c1ccccc1 experimental_value=1.95
compound=O=C(/C=C/c1ccccc1)NNC(=O)/C=C/c1ccccc1 experimental_value=0.91
compound=O=C(/C=C/c1ccccc1)NNC(=O)/C=C/c1ccc(Cl)cc1 experimental_value=0.84
compound=O=C(/C=C/c1ccccc1)NNC(=O)/C=C/c1cccnc1 experimental_value=1.64
compound=O=C(/C=C/c1ccccc1)NNC(=O)/C=C/c1cccc([N+](=O)[O-])c1 experimental_value=0.80
compound=CN(C)c1ccc(/C=C/C(=O)NNC(=O)/C=C/c2ccccc2)cc1 experimental_value=0.53

---

tested on: HepG2 cancer cells; assay: MTT antiproliferative assay, HepG2; type: cell-based, human; conditions: Homo sapiens, HepG2, 48 h, MTT assay after 48 h; read-out: IC50 HepG2
PROPERTY NAME: IC50 (µM)

molecule="O=C(/C=C/c1ccccc1)NNC(=O)/C=C/c1ccccc1Cl [I3]" property_name=IC50 result_unit=µM experimental_value=9.53
molecule="COc1ccc(/C=C/C(=O)NNC(=O)/C=C/c2ccc([N+](=O)[O-])cc2)cc1 [I24]" property_name=IC50 result_unit=µM experimental_value=8.08
molecule="COc1ccc(/C=C/C(=O)NNC(=O)/C=C/c2ccccc2)cc1 [I12]" property_name=IC50 result_unit=µM experimental_value=21.1
molecule="O=C(/C=C/c1ccccc1)NNC(=O)/C=C/c1cccs1 [I18]" property_name=IC50 result_unit=µM experimental_value=21.1
molecule="CCOc1ccc(/C=C/C(=O)NNC(=O)/C=C/c2ccccc2)cc1 [I13]" property_name=IC50 result_unit=µM experimental_value=15.4
